Origin of the recorded values: PubChem BioAssay AID1259407

Test system: CCRIS mutagenicity, Ames/micronucleus/aberration tests
Measurement Notes: CCRIS mutagenicity studies
Details: Test System: AMES SALMONELLA TYPHIMURIUM; Strain/Indicator: TA100; Metabolic Activation: S-9; Method: STANDARD PLATE
Active and inactive are the calls of the source. No rule for the calls is given here.
Measured Attribute: mutagenic call

Below: 5 compounds and their reported mutagenic call.
{"columns": ["Compound Structure String", "mutagenic call"],
 "data": [
  ["CN(C(=O)CCCCl)c1snc2ccccc12", "inactive; negative"],
  ["O=C(O)[C@@H]1CS[C@H](c2ccccc2O)N1C(=O)CCS", "inactive; negative"],
  ["CCSCCSP(=O)(OC)OC", "inactive; negative"],
  ["CC(C)CC(=O)Nc1snc2ccc(Cl)cc12", "inactive; negative"],
  ["c1ccc(CSSCc2ccccc2)cc1", "inactive; negative"]
]}

Field: next compound
**Query** What value of measured mutagenic call is listed for c1ccc2sc(SNC3CCCCC3)nc2c1 ?
**Result** inactive; negative

----------
Test system: CCRIS mutagenicity, Ames/micronucleus/aberration tests
Measurement Notes: CCRIS mutagenicity studies
Details: Test System: AMES SALMONELLA TYPHIMURIUM; Strain/Indicator: TA98; Metabolic Activation: S-9; Method: PREINCUBATION
Activity calls are given as the source filed them. No rule for the calls is given here.
Measured Attribute: mutagenic call

{"columns": ["Molecule", "mutagenic call"],
 "data": [
  ["Clc1cccc(Cl)c1NC1=NCCN1", "inactive; negative"],
  ["COC(=O)c1ccccc1N", "inactive; negative"],
  ["Cc1ccc(N)c(C)c1", "inactive; negative"],
  ["CNC(=O)c1cccc(NCC(=O)NCCc2ccc(OC)c(OC)c2)c1", "inactive; negative"],
  ["CC[C@]1(O)C[C@@H]2CN(CCc3c([nH]c4ccccc34)[C@@](C(=O)OC)(c3cc4c(cc3OC)N(C)[C@H]3[C@@](O)(C(=O)OC)[C@H](OC(C)=O)[C@]5(CC)C=CCN6CC[C@]43[C@@H]65)C2)C1", "inactive; negative"]
]}

**Query** What value of measured mutagenic call is listed for CCN1CCN(C(=O)N[C@@H](C(=O)N[C@@H]2C(=O)N3[C@@H]2SC(C)(C)[C@@H]3C(=O)O)c2ccccc2)C(=O)C1=O ?
**Result** inactive; negative

**Query** What value of measured mutagenic call is listed for O=[N+]([O-])c1ccc2c(c1)Cc1ccccc1-2 ?
**Result** active; positive

**Query** What value of measured mutagenic call is listed for COC(=O)N/N=C/c1c[n+]([O-])c2ccccc2[n+]1[O-] ?
**Result** active; positive

**Query** What value of measured mutagenic call is listed for C=C1[C@@H](O)[C@@H]2O[C@]3(CC[C@H](/C=C/[C@@H](C)[C@@H]4CC(C)=C[C@@]5(O[C@H](C[C@@](C)(O)C(=O)O)CCC5O)O4)O3)CC[C@H]2O[C@@H]1[C@@H](O)C[C@H](C)[C@H]1O[C@@]2(CCCCO2)CC[C@H]1C (some centres undefined) ?
**Result** inactive; negative

----------
Tested on: CCRIS mutagenicity, Ames/micronucleus/aberration tests
Measurement Notes: CCRIS mutagenicity studies
Details: Test System: AMES SALMONELLA TYPHIMURIUM; Strain/Indicator: TA97; Metabolic Activation: NONE; Method: PREINCUBATION
Description: The CCRIS database contains chemical records with carcinogenicity, mutagenicity, tumor promotion, and tumor inhibition test results. It was developed by the National Cancer Institute (NCI). Data are derived from studies cited in primary journals, current awareness tools, NCI reports, and other sources. Test results have been reviewed by experts in carcinogenesis and mutagenesis. CCRIS provides historical information from the years 1985 - 2011. It is no longer updated. […]
Activity calls are given as the source filed them. No rule for the calls is given here.
A correct response names exactly one class from active, inactive

Worked examples, 2 compounds total:
{"columns": ["Compound", "Label Value"],
 "data": [
  ["Cc1ccc(N)c(C)c1", "inactive"],
  ["C[C@@H]1C[C@@H]([C@H](O)CC2CC(=O)NC(=O)C2)C(=O)[C@@H](C)C1", "inactive"]
]}

**Query** Hey, what did the test say about O=[N+]([O-])c1ccc(Nc2ccc(Nc3ccccc3)c(S(=O)(=O)O)c2)c([N+](=O)[O-])c1 ?
**Result** active

**Query** Hey, what did the test say about COC(=O)c1ccccc1N ?
**Result** inactive

**Query** Hey, what did the test say about Cc1ccc(N)c(N)c1 ?
**Result** inactive
